Assay: yeast display, Sf9 membrane polyspecificity reagent, FACS + sequencing; frameworks hold sequencing errors
Property: polyreactivity (PSR sort gate)

Seq String: QVQLVESGGGLVQAGGSLRLSCAASGSIFGINTMGWYRHAPGKEREFVASIRFNDGDTYYADSVKGRFTISRDTAKNTVYLKMNSLKPEDTAVYYCNVQTYVELRLDYWGQGTQVTVSS
Property: polyreactivity (PSR sort gate)
Measurement: low polyreactivity
//
Seq String: QVQLVESGGGLVQAGGSLRLSCAASGSTFHGYDMGWYRQAPGKERELVAAITSSGDDTYYADSEKGRFTISLDNAKNTVYLQMNSLKPEDTAVYYCAAEYTEGYTHDYWGQGTQVTVSS
Property: polyreactivity (PSR sort gate)
Measurement: low polyreactivity
//
Seq String: QVQLVESGGGLVQAGGSLRLSCAASGRILPYYAMGWYRQAPGKERELVAAITSGGSTYYADSVKGRFTISRDNAKNTVSLQMNSLKPEDTAVYYCATDVDKSLYDYWGQGTQVTVSS
Property: polyreactivity (PSR sort gate)
Measurement: low polyreactivity
//
Seq String: QVQLVESGAPLVQAGGSLRLSCAASGSTFERYVMGWYRQRLGNKGSWLPVLNHNGGSTYYADSVKGRFTISRDNAKNTVYLQMNSLKPEDTAVYYCAASFRTVLDYGYWGQGTQVTVSS
Property: polyreactivity (PSR sort gate)
Measurement: low polyreactivity
//
Seq String: QVQLVESGGGLVQAGGSLRLSCAASGRIFVPYLMGWYRQAPGKERELVASISDSDTSTYYADSVKGRFTISRDNAKNTVYLQMNSLKPEDTAVYYCNVDYWGQGTQVTVSS
Property: polyreactivity (PSR sort gate)
Measurement: low polyreactivity
//
Seq String: QVQLVESGVGLVQAGGSHPLSCAASGSTLRYAMGWNRQAPGKETELVAAISRTGGSTYYADSVKGRFTISRDNAKNTVYLQMNSLKPEDPAVYYCAARYFTSYPLYYYWGQGTQVTVSS
Property: polyreactivity (PSR sort gate)
Measurement: high polyreactivity
//
Seq String: QVQLVESGGGLVQAGGSLRLSCAASGSIFIYYAMGWYRQAPGKERELVAAISWSGDRTYYADSVKGRFTISRDNAKNTVYLQMNSLKPEDTAVYYCAARVVTPSAFPRYYWGQGTQVTVSS
Property: polyreactivity (PSR sort gate)
Measurement: high polyreactivity
//
Seq String: QVQLVESGGGLVQAGGSLRLRCAASVRIFRVYAMGRYSQAPGKERELVAAISSSGGSTYYADSVKGRFTMSRDNAKNTDYLQMNSLKPEDTAVYYCAAGGLHTIQRPGYYYWGQGTQVTVSS
Property: polyreactivity (PSR sort gate)
Measurement: low polyreactivity
//
Seq String: QVQLVESGGGLVQAGGSLRLSCAASGGILHYYAMGWYRQAPGKERELVAAISWSGGSTYYADSVKGRFTISRDNAKNTVYLQMNSLKPEDTAVYYCNKVGVAYIFGWMDYWGQGTQVTVSS
Property: polyreactivity (PSR sort gate)
Measurement: high polyreactivity
//
Seq String: QVHLVESGGGLVQAGGSLRLSCAASGRTFATYALGWYRQAPGKERELVAAISSGGSTYYADSVKGRFTISRDNAKNTVYLQMNSLKPEDTAVYYCAAARKYYGYNYWGQGTQVTVSS
Property: polyreactivity (PSR sort gate)
Measurement: high polyreactivity
//
Seq String: QDQHVESGGGLVQAGGSLRLSCAASGRTFSYYTMGWYRQAPGKERELVAAISRRGGNTYYADSVKGRFTISRDNAKNTVYLQMNSLKPADTAVYYCAALSYAKHYDPSGYDYWGQGTQVTVSS
Property: polyreactivity (PSR sort gate)
Measurement: high polyreactivity
